- test-system: CA XII (Homo sapiens)
- Construct: 12 recombinant catalytic domains of human active CA isoforms as determined by FTSA
- Sequence (O43570 30-289 limits assumed): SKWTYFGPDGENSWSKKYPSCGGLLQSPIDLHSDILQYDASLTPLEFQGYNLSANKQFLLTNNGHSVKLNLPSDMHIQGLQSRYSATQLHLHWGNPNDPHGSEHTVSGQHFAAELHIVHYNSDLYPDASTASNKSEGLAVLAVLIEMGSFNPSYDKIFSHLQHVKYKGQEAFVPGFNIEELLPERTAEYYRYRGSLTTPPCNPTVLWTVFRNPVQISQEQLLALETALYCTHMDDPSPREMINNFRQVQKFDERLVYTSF
- method-description: Stopped-flow CO2 hydration inhibition assay (SFA)
- assay-setup: pH 7.5, 25° C, value in parentheses
assay-metric: pKi
// pKi here means minus log10 of the molar concentration (mol/L)

Need pKi of NS(=O)(=O)c1c(F)c(F)c(SCCc2ccc(C(=O)O)cc2)c(F)c1NC1CCCCCCCCCCC1 [VR16-09] , thanks.
7.00

* * *

- test-system: CA XIII (Homo sapiens, UniProt Q8N1Q1)
- Construct: 12 recombinant catalytic domains of human active CA isoforms as determined by FTSA
- Sequence (Q8N1Q1 4-261 limits assumed): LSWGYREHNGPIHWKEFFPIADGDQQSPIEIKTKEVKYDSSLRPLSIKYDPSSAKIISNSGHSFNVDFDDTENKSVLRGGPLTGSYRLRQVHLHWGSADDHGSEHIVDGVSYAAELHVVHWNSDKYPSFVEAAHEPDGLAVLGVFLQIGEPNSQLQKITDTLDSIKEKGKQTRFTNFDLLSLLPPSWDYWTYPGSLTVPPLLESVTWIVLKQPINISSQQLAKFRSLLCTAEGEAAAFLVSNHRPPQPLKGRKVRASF
- method-description: Fluorescent thermal shift assay (FTSA)
- Type: binding
- assay-setup: pH 7.0, 37° C
assay-metric: Kd (nM)
Give just the number in nM; leave the unit off.

NS(=O)(=O)c1c(F)c(F)c(SCCc2ccc(C(=O)O)cc2)c(F)c1NC1CCCCCCCCCCC1 : 20

Here's the next entry for you.
Need Kd of `NS(=O)(=O)c1c(F)c(F)c(SCCc2ccc(C(=O)O)cc2)c(F)c1NC1CCCCCCC1` , thanks.
40

* * *

- test-system: CA II (Homo sapiens)
- Construct: 12 recombinant catalytic domains of human active CA isoforms as determined by FTSA
- method-description: Fluorescent thermal shift assay (FTSA)
- assay-setup: pH 7.0, 37° C
assay-metric: Kd (nM)
Give just the number in nM; leave the unit off.

Need Kd of NS(=O)(=O)c1c(F)c(F)c(SCCc2ccc(C(=O)O)cc2)c(F)c1NC1CCCCCCC1 [VR16-10] , thanks.
1000

* * *

- test-system: CA III (Homo sapiens, UniProt P07451)
- Construct: 12 recombinant catalytic domains of human active CA isoforms as determined by FTSA
- Sequence (P07451 3-259 limits assumed): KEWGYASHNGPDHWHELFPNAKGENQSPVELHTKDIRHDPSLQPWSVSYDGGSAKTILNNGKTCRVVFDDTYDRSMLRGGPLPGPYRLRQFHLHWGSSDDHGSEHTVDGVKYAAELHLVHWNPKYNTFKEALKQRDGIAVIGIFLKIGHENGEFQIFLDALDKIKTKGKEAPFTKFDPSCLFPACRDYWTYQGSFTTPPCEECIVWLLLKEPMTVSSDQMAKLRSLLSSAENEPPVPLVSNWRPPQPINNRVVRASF
- method-description: Fluorescent thermal shift assay (FTSA)
- assay-setup: pH 7.0, 37° C
Here the recorded Kd is given for each entry.

NS(=O)(=O)c1c(F)c(F)c(SCCc2ccc(C(=O)O)cc2)c(F)c1NC1CCCCCCCCCCC1 : ≥ 200 µM

Need Kd of `NS(=O)(=O)c1c(F)c(F)c(SCCc2ccc(C(=O)O)cc2)c(F)c1NC1CCCCCCC1` , thanks.
≥ 200 µM

* * *

- test-system: CA VII (Homo sapiens, UniProt P43166)
- Construct: 12 recombinant catalytic domains of human active CA isoforms as determined by FTSA
- Sequence (P43166 5-262 limits assumed): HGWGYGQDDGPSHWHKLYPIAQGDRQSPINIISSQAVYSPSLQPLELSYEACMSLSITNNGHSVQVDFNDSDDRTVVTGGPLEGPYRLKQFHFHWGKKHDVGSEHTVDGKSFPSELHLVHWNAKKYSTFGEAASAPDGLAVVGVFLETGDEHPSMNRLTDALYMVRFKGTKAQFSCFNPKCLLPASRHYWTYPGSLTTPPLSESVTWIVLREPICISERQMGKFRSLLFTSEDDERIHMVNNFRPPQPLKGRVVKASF
- method-description: Fluorescent thermal shift assay (FTSA)
- assay-setup: pH 7.0, 37° C
assay-metric: Kd (µM)
Give just the number in µM; leave the unit off.

NS(=O)(=O)c1c(F)c(F)c(SCCc2ccc(C(=O)O)cc2)c(F)c1NC1CCCCCCC1 : 0.1

Here's the next entry for you.
Need Kd of `NS(=O)(=O)c1c(F)c(F)c(SCCc2ccc(C(=O)O)cc2)c(F)c1NC1CCCCCCCCCCC1` , thanks.
37

* * *

- System: HeLa cells
- method-description: alamarBlue cell viability assay
- Format: cell-based, human
- assay-setup: Homo sapiens, HeLa, 72 h, 0.2% O2 (hypoxia)
assay-metric: EC50 (µM)
Give just the number in µM; leave the unit off.

Need EC50 of `NS(=O)(=O)c1c(F)c(F)c(SCCO)c(F)c1NC1CCCCCCC1` , thanks.
46.9

* * *

- test-system: CA VI (Homo sapiens, UniProt P23280)
- Construct: 12 recombinant catalytic domains of human active CA isoforms as determined by FTSA
- Sequence (P23280 21-278 limits assumed): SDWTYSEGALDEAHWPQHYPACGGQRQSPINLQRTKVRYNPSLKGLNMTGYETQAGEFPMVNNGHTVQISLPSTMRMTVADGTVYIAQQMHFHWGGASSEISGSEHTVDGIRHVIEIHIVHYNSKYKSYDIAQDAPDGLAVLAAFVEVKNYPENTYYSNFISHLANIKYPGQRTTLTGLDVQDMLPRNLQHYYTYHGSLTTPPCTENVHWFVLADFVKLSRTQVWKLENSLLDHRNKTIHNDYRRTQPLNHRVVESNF
- method-description: Fluorescent thermal shift assay (FTSA)
- assay-setup: pH 7.0, 37° C
- Description: The binding affinity of synthesized compounds to recombinant human CAs was measured by the fluorescent thermal shift assay (FTSA) where the thermal stabilization of the protein by the compound was determined by following the fluorescence dependence on temperature at various added compound concentrations. The melting temperature (Tm) of CA was measured using the Corbett Rotor-Gene 6000 instrument (QIAGEN Rotor-Gene Q, excitation at 365 ± 20 nm, emission detection at 460 ± 15 nm). […]
assay-metric: Kd (µM)
Give just the number in µM; leave the unit off.

Need Kd of `NS(=O)(=O)c1c(F)c(F)c(SCCc2ccc(C(=O)O)cc2)c(F)c1NC1CCCCCCC1` , thanks.
26.3

Just for reference, paper PMC6003569 is where these values come from.
